Value source: ChEMBL document CHEMBL6078700

test: Cmax in Sprague-Dawley rat at 10 mg/kg, po; format: ADME, organism-based; conditions: in vivo

- molecule: "[2H]C([2H])([2H])C([2H])([2H])[S+]([O-])c1ccccc1Nc1nc(Nc2cc(NC(=O)C=C)c(N(C)CCN(C)C)cc2OC)ncc1Cl (single isomer, unassigned; (-))"
  result unit: "ng/mL"
  Cmax: 169

---

assay: Tmax in Sprague-Dawley rat at 1 mg/kg, iv; format: ADME, organism-based; conditions: in vivo

- compound: "[2H]C([2H])([2H])C([2H])([2H])[S+]([O-])c1ccccc1Nc1nc(Nc2cc(NC(=O)C=C)c(N(C)CCN(C)C)cc2OC)ncc1Cl (single isomer, unassigned; (-))"
  Tmax [min]: 1.98
